Assay read-out IC50; system under study: UniProt O00763.
quantity: IC50 (µM)

>  <compound>
CC(=O)N[C@@H](C)c1ccc(OC2CCN(c3ccc4c(c3)OCC(C)(C)CO4)C2)cc1 (some centres unmarked) [Example 1.18]

>  <assay value>
0.214

$$$$
>  <compound>
CC(=O)N[C@@H](C)c1ccc(OC2CCN(c3ccc(OC4CCC4)cc3)C2)cc1 (some centres unmarked) [Example 1.14]

>  <assay value>
0.036

$$$$

(P) Cc1cc(OC2CC2)ccc1N1CC[C@@H](Oc2ccc([C@H](C)NC(=O)CC#N)cc2)C1 [Example 2.59]
(Q) CC(=O)N[C@@H](C)c1ccc(OC2CCN(c3ccc4c(c3C)OCCO4)C2)cc1 (some centres unmarked) [Example 1.83]
Prompt line: Between P and Q , which one has the lower reported IC50 value? Please indicate the selected item by its label.
Response line: Q

(A) CC(=O)N[C@@H](C)c1ccc(OC2CCN(c3ccc4c(c3)COC4)C2)cc1 (some centres unmarked) [Example 1.75]
(B) CC(=O)N[C@@H](C)c1ccc(OC2CCN(c3ccc(OCC4CC4(F)F)cc3F)C2)cc1 (some centres unmarked) [Example 1.41]
Prompt line: Between A and B , which one has the lower reported IC50 value? Please indicate the selected item by its label.
Response line: B
(B: 0.045 µM, A: 0.709 µM)

====

# assayed target: human ACC2 (Homo sapiens (Human), UniProt O00763)
# Sequence (O00763 129-2458): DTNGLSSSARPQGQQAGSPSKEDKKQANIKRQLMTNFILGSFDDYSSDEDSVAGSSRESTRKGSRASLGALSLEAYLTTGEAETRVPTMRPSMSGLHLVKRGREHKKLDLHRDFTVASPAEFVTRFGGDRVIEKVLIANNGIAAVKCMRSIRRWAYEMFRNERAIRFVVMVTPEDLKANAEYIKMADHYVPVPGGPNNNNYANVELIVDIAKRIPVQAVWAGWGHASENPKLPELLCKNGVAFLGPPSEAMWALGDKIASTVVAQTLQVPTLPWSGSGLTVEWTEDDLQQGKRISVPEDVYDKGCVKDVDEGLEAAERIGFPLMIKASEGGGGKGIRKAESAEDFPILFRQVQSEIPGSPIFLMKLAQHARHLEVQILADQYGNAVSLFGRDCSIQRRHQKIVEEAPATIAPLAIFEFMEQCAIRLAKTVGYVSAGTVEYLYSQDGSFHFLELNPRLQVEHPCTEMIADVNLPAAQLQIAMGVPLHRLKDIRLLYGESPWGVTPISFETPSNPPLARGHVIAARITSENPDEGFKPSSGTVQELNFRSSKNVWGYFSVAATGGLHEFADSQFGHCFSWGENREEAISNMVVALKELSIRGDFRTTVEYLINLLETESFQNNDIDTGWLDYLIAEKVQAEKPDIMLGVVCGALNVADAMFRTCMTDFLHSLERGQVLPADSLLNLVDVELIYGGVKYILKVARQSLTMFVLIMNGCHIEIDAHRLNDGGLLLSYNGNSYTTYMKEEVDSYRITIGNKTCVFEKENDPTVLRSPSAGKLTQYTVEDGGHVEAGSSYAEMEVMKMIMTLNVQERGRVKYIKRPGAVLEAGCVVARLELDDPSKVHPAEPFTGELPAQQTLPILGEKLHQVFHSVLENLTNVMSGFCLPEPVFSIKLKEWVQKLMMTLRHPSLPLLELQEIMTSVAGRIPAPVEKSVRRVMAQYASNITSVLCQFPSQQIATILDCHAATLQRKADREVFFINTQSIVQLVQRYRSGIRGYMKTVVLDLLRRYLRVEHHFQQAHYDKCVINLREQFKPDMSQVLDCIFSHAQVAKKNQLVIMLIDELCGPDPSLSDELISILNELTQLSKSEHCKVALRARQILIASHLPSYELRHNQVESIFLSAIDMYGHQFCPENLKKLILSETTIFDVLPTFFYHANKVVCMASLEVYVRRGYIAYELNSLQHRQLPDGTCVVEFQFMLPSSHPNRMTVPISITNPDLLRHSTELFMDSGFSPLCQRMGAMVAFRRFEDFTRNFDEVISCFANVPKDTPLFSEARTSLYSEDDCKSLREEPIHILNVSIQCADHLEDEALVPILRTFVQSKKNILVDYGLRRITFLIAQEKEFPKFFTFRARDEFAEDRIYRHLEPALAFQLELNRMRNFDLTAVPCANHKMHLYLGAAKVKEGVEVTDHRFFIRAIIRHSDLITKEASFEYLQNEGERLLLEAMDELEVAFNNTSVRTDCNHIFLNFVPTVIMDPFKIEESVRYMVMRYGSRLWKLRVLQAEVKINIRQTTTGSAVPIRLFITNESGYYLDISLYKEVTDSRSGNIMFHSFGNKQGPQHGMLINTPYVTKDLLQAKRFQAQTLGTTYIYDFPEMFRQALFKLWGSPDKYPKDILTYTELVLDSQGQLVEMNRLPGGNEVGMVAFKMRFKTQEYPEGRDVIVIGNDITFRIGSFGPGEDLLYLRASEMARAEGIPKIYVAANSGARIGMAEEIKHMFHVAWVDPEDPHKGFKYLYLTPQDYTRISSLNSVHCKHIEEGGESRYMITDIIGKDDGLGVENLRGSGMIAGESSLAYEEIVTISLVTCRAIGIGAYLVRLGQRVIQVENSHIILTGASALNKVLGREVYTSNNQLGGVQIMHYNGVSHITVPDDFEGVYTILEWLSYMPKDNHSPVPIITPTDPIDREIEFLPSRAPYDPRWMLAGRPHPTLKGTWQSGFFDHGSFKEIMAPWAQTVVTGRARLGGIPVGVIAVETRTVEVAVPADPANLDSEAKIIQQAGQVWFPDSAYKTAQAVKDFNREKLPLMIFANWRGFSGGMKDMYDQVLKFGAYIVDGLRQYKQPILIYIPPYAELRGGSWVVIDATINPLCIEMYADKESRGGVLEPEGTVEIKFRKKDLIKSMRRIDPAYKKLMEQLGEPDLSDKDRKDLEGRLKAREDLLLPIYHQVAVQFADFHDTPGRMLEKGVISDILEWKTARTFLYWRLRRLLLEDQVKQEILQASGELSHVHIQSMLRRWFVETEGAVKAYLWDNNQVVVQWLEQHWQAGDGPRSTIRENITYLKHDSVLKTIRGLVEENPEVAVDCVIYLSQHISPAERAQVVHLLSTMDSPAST
quantity: IC50 (nM)

Solved cases below.
>  <compound>
C[C@H](NC(=O)c1ccno1)c1ccc(O[C@@H]2CCN(c3ccc(OCC4CC4)cc3)C2)cc1

>  <IC50 / nM>
61

$$$$
>  <compound>
Cc1nocc1C(=O)N[C@@H](C)c1ccc(O[C@@H]2CCN(c3ccc(OCC4CC4)cc3)C2)cc1

>  <IC50 / nM>
65

$$$$
>  <compound>
CCNC(=O)N[C@@H](C)c1ccc(OC2CCN(c3ccc(OCC4CC4)cc3)C2)cc1 (some centres unmarked)

>  <IC50 / nM>
55

$$$$
>  <compound>
CC(=O)N[C@@H](C)c1ccc(OC2CCN(c3ccc(Oc4cnccn4)cc3)C2)cc1 (some centres unmarked)

>  <IC50 / nM>
440

$$$$
>  <compound>
CC(=O)N[C@@H](C)c1ccc(OC2CCN(c3ccc(OCc4ccccc4)cc3)C2)cc1 (some centres unmarked)

>  <IC50 / nM>
660

$$$$
>  <compound>
CC(=O)N[C@@H](C)c1ccc(OC2CCN(c3ccc4c(c3F)OCCO4)C2)cc1 (some centres unmarked)

>  <IC50 / nM>
339

$$$$
>  <compound>
CC(=O)N[C@@H](C)c1ccc(OC2CCN(c3ccc(OCC(F)(F)C(F)F)cc3)C2)cc1 (some centres unmarked)

>  <IC50 / nM>
630

$$$$
>  <compound>
CC(=O)N[C@@H](C)c1ccc(OC2CCN(c3cc(Cl)ccc3Cl)C2)cc1 (some centres unmarked)

>  <IC50 / nM>
354

$$$$

(A) CC(=O)N[C@H]1C[C@@H](C(=O)N[C@@H](C)c2ccc(O[C@@H]3CCN(c4ccc(OCC5CC5)cc4)C3)cc2)NC1=O
(B) CC(=O)N[C@@H](C)c1ccc(OC2CCN(c3ccc4c(c3)C(C)(C)CO4)C2)cc1 (some centres unmarked)
(C) CC(=O)Nc1nc(C)c(C(=O)N[C@@H](C)c2ccc(OC3CCN(c4ccc(OCC5CC5)cc4)C3)cc2)s1 (some centres unmarked)
(D) CC(=O)N[C@@H](C)c1ccc(OC2CCN(c3ccc4c(c3)CCO4)C2)cc1 (some centres unmarked)
Prompt line: Endpoint returns the given compounds ordered by ascending IC50. Give the order by naming the labels one after another as requested.
Response line: C, B, D, A
(C: 40 nM, B: 269 nM, D: 397 nM, A: 705 nM)

(A) CC(=O)N[C@@H](C)c1ccc(OC2CCN(c3ccc(OCC4CCCO4)cc3)C2)cc1 (some centres unmarked)
(B) Cc1cc(OC2CC2)ccc1N1CCC(Oc2ccc([C@H](C)NC(=O)N3CCOCC3)cc2)C1 (some centres unmarked)
(C) CCOc1ccc(N2CC[C@@H](Oc3ccc([C@H](C)NC(=O)c4sc(NC(=O)COCc5ccccc5)nc4C)cc3)C2)cc1
(D) COc1cc(OC2CC2)ccc1N1CCC(Oc2ccc([C@H](C)NC(C)=O)cc2)C1 (some centres unmarked)
Prompt line: Endpoint returns the given compounds ordered by ascending IC50. Give the order by naming the labels one after another as requested.
Response line: C, D, A, B

(I) CC(O)C(=O)N[C@@H](C)c1ccc(O[C@@H]2CCN(c3ccc(OCC4CC4)cc3)C2)cc1 (some centres unmarked)
(II) CC(=O)N[C@@H](C)c1ccc(OC2CCN(c3ccc(OC(C)C)cc3C)C2)cc1 (some centres unmarked)
Prompt line: Between I and II , which one has the lower reported IC50 value? Please indicate the selected item by its label.
Response line: II

(P) C[C@H](NC(=O)c1cnn(CC(F)F)c1)c1ccc(O[C@@H]2CCN(c3ccc(OCC4CC4)cc3)C2)cc1
(Q) CCCOc1ccc(N2CCC(Oc3ccc([C@H](C)NC(C)=O)cc3)C2)c(Cl)c1 (some centres unmarked)
Prompt line: Between P and Q , which one has the lower reported IC50 value? Please indicate the selected item by its label.
Response line: Q
(Q: 60 nM, P: 805 nM)
